Cited source for all entries: PubChem BioAssay

test system: XIP peptide (Xip251-270) binding; assay: XIP fragment 251-270 binding compounds – biochemical, small-molecule microarray, fluorescence 635/667 nm, 0.1 µg/mL protein, primary screen (AID 1182); conditions: fluorescent protein binding, 635 nm, higher = more signal, called active from +8 up or from −8 down
I'd appreciate it if you could supply composite z-score values for the items below.
One number for each entry.

CN(C)C(=O)[C@@]1(Cc2ccccc2CN=[N+]=[N-])N=C(c2ccc(OCCCO)cc2)O[C@H]1c1ccccc1N=[N+]=[N-]    0.458

For each listed entry, give its composite z-score.
1. CCCN1C(=O)[C@]2(Cc3ccccc31)N=C(c1ccc(OCCCO)cc1)O[C@@H]2c1ccccc1
2. COC(=O)c1c(CC[C@@H](CO)NC(=O)N[C@@H](C)Cn2cc(-c3ccccn3)nn2)oc(C(C)=O)c1C(=O)OC
3. Cc1ccccc1C(O)C1C=CC2C(=O)NC(=O)C2N1Nc1ccccn1 (stereo not drawn)
4. O=C1C2C=CC(C(O)C3CC=CCC3)N(Nc3ccccc3)C2C(=O)N1c1ccccc1 (stereo not drawn)
5. CCCC1(C(=O)OC)C=C2C(=C(C)C(=O)C2C)CN1 (stereo not drawn)
6. CCCN1C(=O)[C@@]2(Cc3ccccc31)N=C(c1ccc(OCCCO)cc1)O[C@H]2c1ccccc1
7. COC(=O)[C@@]1(Cc2ccccc2)[C@H]2c3cc(C(=O)N(C)C)n(Cc4ccc(C)o4)c3C[C@H]2CN1C(=O)c1ccccc1

1. -0.0074
2. 1.29
3. 0.132
4. 0.767
5. -1.06
6. 0.468
7. 0.681

###

test: probe aLefty1 binding on compound microarray – biochemical, small-molecule microarray, 635/667 nm fluorescence, primary screen (AID 1153); details: higher = more signal;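 also: score merges spot fluorescence with signal-to-noise ratio from the scanned slide images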
Property name: composite z-score

C=CCNC(=O)[C@@H]1[C@H]2C(=O)O[C@H](c3ccccc3)[C@H](c3ccccc3)N2[C@H](c2ccccc2OCCO)[C@@]12C(=O)Nc1ccc(C#CCCO)cc12    -0.674
O=C(O)[C@@H]1[C@@H]2C(=O)N(c3ccccc3)C(=O)[C@@H]2C[C@@H]1Sc1ccccc1    -0.0573

Now look at this entry.
# composite z-score lookup, item CCOC(=O)C[C@H]1[C@H](OC(=O)c2ccc(C(=O)c3ccccc3)cc2)[C@@H](NC(=O)C2CCCCC2)c2cc(OCCCO)ccc2N1C(=O)c1ccc2ccccc2n1
0.596

###

biological target: Albumin (Bos taurus); assay: compounds binding labelled BSA control protein – biochemical, small-molecule microarray, Alexa647 label, 635/667 nm fluorescence, artefact control for SMM control protein annotation, profiling panel (AID 1118); conditions: BSA-A647 binding, fluorescence 635 nm, higher = more signal;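 also: score merges 667 nm emission intensity and signal-to-noise per printed compound spot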
Think of 0.3 as a floor: if composite z-score stands on it or above, it is YES; beneath it, NO.

Worked examples, 5 compounds total:
[N-]=[N+]=NCc1ccccc1[C@@H]1OC(c2ccc(OCCCO)cc2)=N[C@]1(CCS(=O)(=O)c1ccccc1)C(=O)O    YES
CC(C)(C)OC(=O)COc1cccc(C(=O)CCN2CCOCC2)c1    NO
C=CC[C@H](OC(=O)Nc1ccc(SC)cc1)c1ccc(O)c2ccccc12    YES
C[C@@H]1NC(=O)[C@@H](Cc2ccccc2)NC(=O)[C@@]23C(=O)N[C@@H](Cc4ccccc4)C2[C@H](C)[C@@]2(C)O[C@H]2C3/C=C/C/C=C\CNC1=O (stereo partly drawn)    YES
C=CC[C@]1(C(=O)N2CCCCC2)N=C(c2ccc(OCCCO)cc2)O[C@H]1c1ccccc1CN=[N+]=[N-]    YES

API: above_or_equal(metric=composite z-score, cutoff=0.3) for item CC1CC/C=C\[C@H]2OC34C=CCN(C(C)(C)C)C(=O)[C@H]3N(CCCCCO)C(=O)[C@@H]4C2C(=O)O1 (stereo partly drawn)
NO

How about this compound: CC1=C2[C@@H](CCc3ccccc3)OB(O)C[C@@H]2[C@@H]2C(=O)N(C)C(=O)[C@@H]2C1
YES

Again, but for [N-]=[N+]=Nc1ccccc1C[C@]1(C(=O)NCC(O)CO)COC(c2ccc(OCCCO)cc2)=N1 (stereo partly drawn)
YES

###

test system: Chordin-like protein 2 (CHRDL2); assay: compounds binding chordin-like 2 – biochemical, small-molecule microarray, 635 nm fluorescence, primary screen (AID 1126); details: fluorescence 635 nm, higher = more signal;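 also: printed compound slides probed with Chrdl2 protein at 4 µg/mL for 1 h at 4 C; score merges 667 nm emission intensity with signal to noise over three replicate slides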
Property name: composite z-score
Give bare numbers.

# annotated cases, reported composite z-score shown
N#Cc1ccc(NN2C(C(O)c3ccc(Br)cc3)C=CC3C(=O)N(c4ccccc4)C(=O)C32)cc1 (centres undefined)    0.195
CC(C)c1ccc(NN2C(C(O)c3ccc(F)cc3)C=CC3C(=O)N(c4ccccc4)C(=O)C32)cc1 (centres undefined)    -0.0773
C=CCC(OC(C)=O)[C@@H]1[C@@H](N(Cc2cc3ccccc3o2)C(=O)Cc2ccc(F)cc2)c2cc(OCCCO)ccc2N1C(=O)Cc1ccc2ccccc2c1 (some centres undefined)    -0.21
COC(=O)[C@@]1(Cc2ccc(F)cc2)[C@H]2c3cc(C(=O)N4CCCC4)n(Cc4ccc(C)c(F)c4F)c3C[C@H]2CN1C(=O)c1ccccc1    -0.186
O=C1C2C=CC(C(O)C3CC=CCC3)N(Nc3ccccc3)C2C(=O)N1c1ccccc1 (centres undefined)    0.718

Please go through the list and note composite z-score for each molecule.
1. COCCOC(=O)N1C(=O)[C@@]2(c3ccccc31)[C@H](C(=O)NC[C@H](O)c1ccccc1)[C@H]1C(=O)O[C@H](c3ccccc3)[C@H](c3ccccc3)N1[C@@H]2c1ccc(O)cc1
2. CC(C)C(CO)N1C(=O)[C@@H]2[C@H]3C(=O)OCC=C[C@H]3OC23C=CCN(c2ccc(Cl)cc2)C(=O)[C@@H]13 (some centres undefined)
3. COc1ccc(C(=O)Nc2ccc(CN3C(=O)[C@]4(O[C@H](CC(=O)N5Cc6ccccc6C[C@H]5CO)[C@@H]([Si](C)(C)c5ccc(OC)cc5)[C@@H]4C)c4ccccc43)cc2)cc1
4. CCOC(=O)C[C@H]1[C@H](OC(=O)Cc2ccc3c(c2)OCO3)[C@@H](NC(=O)c2ccc3ccccc3n2)c2cc(OCCCO)ccc2N1C(=O)c1ccccc1

1.04
-0.847
1.14
0.528

###

biological target: Torsin-1A (Homo sapiens); assay: torsin A mutant lysate binding on microarrays – cell lysate, small-molecule microarray, COS7 lysate, 635/667 nm fluorescence, primary screen (AID 1150); conditions: COS7 hTOR1A mutant lysate, 635 nm fluorescence, higher = more signal;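 also: score pools 667 nm emission and signal to noise measuring lysate protein binding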
Please use MET whenever composite z-score is not below 0.4, and NOT MET whenever it is.

Quick check: does CCOC(=O)C[C@H]1[C@H](OC(=O)c2ccccc2-c2ccccc2)[C@@H](NC(=O)c2ccc3ccccc3n2)c2cc(OCCCO)ccc2N1C(=O)Cc1ccc(OC)cc1 have composite z-score greater than or equal to 0.4?
NOT MET

Repeat for the following compound: C=CCNC(=O)[C@H]1[C@@H]2C(=O)O[C@@H](c3ccccc3)[C@@H](c3ccccc3)N2[C@@H](c2ccccc2OCCO)[C@]12C(=O)N(C(=O)OCCOC)c1ccc(C#CC3(O)CCCCCC3)cc12
MET

Also need CN(C)C(=O)[C@@]1(Cc2ccccc2CN=[N+]=[N-])N=C(c2ccc(OCCCO)cc2)O[C@H]1c1ccccc1N=[N+]=[N-] , thanks.
MET

One more compound: N[C@@H](Cc1ccccc1)C(=O)NCc1cn(Cc2ccccc2)nn1
NOT MET

Record: Cc1ccc(NN2C(C(O)c3c(F)cccc3Cl)C=CC3C(=O)N(C4CCCCC4)C(=O)C32)cc1 (configuration not stated)
MET

Also O=C(NCCN1CCOCC1)[C@@H]1c2ccccc2C(=O)N(Cc2ccccc2Cl)[C@H]1c1ccc(CO)cc1 ?
MET

###

assay: probe aXIP binding to arrayed compounds – biochemical, NeuroSMM set, 635/667 nm fluorescence, primary screen (AID 1119); details: small-molecule microarray, higher = more signal, called active from +8 up or from −8 down;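 also: probe is the protein aXip251-270 applied at 1 µg/mL to compound-printed slides; binding of probe to printed compounds measured as 667 nm fluorescence plus signal to noise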
Hi, to clarify the labels: 1 (yes) covers composite Z-score from -0.08 upward, 0 (no) covers anything below -0.08.

Reference set (4 entries):
COCCCNC(=O)[C@@]1(Sc2ccc(C)cc2)CC(=O)N(C2Cc3ccccc3C2)[C@@H]1c1ccc(CO)cc1    1 (yes)
Cc1ccc(S[C@]2(C(=O)NCC(F)(F)F)CC(=O)N(Cc3cc(C(F)(F)F)cc(C(F)(F)F)c3)[C@@H]2c2ccc(CO)cc2)cc1    1 (yes)
CCCC=C(CCC)[C@@H](NC(=O)c1cccs1)c1ccc(C(=O)OC)cc1    1 (yes)
CCCCCN1CC=CC23O[C@@H]4/C=C\CCC(C)OC(=O)C4[C@H]2C(=O)N(C(CO)C(C)C)[C@@H]3C1=O (some centres not stated)    1 (yes)

Does O=C1C[C@]2(c3ccc([N+](=O)[O-])cc3)C(=O)N(C3CC3)c3cc(CO)ccc3[C@H]2N1CC12CC3CC(CC(C3)C1)C2 have a reported composite Z-score of at least -0.08?
0 (no)

Quick one: CCOC(=O)C[C@H]1[C@H](OC(=O)c2ccc(C(=O)c3ccccc3)cc2)[C@@H](NC(=O)c2ccc(-c3ccccc3)cc2)c2cc(OCCCO)ccc2N1C(=O)Cc1ccc(OC)cc1
0 (no)

Now give it for CCCC1(C(=O)OC)C=C2C(=C(C)C(=O)C2C)CN1 (configuration not stated) too.
1 (yes)
